Data origin: paper PMC12299554

Measured IC50, listed per entry.
- measurement.target: AChE (EC 3.1.1.7, Electrophorus electricus, Type V-S) (Electrophorus electricus, UniProt O42275)
- Sequence (O42275 24-633): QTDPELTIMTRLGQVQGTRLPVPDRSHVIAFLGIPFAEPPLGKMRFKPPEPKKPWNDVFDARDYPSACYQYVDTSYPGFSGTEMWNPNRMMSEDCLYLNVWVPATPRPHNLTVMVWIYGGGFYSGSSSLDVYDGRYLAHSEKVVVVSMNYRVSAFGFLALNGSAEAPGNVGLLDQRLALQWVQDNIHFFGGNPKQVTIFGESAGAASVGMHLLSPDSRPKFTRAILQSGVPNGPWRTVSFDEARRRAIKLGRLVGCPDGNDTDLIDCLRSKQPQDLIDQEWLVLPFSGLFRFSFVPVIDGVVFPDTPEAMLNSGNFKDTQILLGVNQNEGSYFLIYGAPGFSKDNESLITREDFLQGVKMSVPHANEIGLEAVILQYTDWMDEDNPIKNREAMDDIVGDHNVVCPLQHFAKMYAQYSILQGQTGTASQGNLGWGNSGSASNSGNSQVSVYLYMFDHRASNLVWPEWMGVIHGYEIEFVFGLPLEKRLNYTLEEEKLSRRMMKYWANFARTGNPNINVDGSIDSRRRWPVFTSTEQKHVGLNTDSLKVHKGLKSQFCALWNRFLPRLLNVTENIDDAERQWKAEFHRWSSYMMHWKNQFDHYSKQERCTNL
- experiment: biochemical
- experimental.parameters: mean of three measurements ± standard deviation

{"columns": ["compound", "unit.symbol", "IC50"],
 "data": [
  ["Fc1cccc(Cn2n[n+](Cc3ccc(Cl)cc3)c3ccc4sccc4c32)c1 [Compound 10]", "µM", 9.96],
  ["Cc1cc2c(ccc3c2n(Cc2ccc(Cl)cc2)n[n+]3Cc2ccc(Cl)cc2)s1.[Br-] [Compound 3]", "µM", 8.89],
  ["Cc1ccc(C[n+]2nn(Cc3ccc(Cl)cc3)c3c4ccsc4ccc32)cc1.[Br-] [Compound 1]", "µM", 12.7],
  ["Cc1ccc(C[n+]2nn(Cc3cccc(F)c3)c3c4ccsc4ccc32)cc1.[Br-] [Compound 9]", "µM", 4.8],
  ["C=CCn1n[n+](Cc2ccccc2)c2ccc3sccc3c21 [Compound 14]", "µM", 2.13]
]}

###

- measurement.target: BChE (EC 3.1.1.8, equine serum) (Equus caballus, UniProt P81908)
- Sequence (P81908 whole entry): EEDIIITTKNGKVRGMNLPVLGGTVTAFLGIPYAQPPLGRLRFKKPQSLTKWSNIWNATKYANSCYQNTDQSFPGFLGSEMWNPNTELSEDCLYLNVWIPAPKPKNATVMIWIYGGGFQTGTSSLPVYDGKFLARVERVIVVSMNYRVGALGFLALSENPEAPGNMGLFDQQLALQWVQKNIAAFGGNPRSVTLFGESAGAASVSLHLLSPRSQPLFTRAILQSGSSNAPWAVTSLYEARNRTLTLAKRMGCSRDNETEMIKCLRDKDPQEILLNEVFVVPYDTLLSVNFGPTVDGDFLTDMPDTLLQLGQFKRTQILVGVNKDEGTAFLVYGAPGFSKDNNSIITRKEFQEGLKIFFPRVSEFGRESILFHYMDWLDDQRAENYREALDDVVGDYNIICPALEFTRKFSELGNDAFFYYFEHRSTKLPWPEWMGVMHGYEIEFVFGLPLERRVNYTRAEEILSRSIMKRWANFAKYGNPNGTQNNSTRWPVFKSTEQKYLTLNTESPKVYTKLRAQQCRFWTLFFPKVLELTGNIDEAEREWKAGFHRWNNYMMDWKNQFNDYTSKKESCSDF
- experiment: biochemical
pIC50: −log10 of the molar value.
attribute.measured: pIC50

{"columns": ["molecule", "measurement.target", "attribute.measured", "measured"],
 "data": [
  ["C=CCn1n[n+](Cc2ccccc2)c2ccc3sccc3c21", "BChE (EC 3.1.1.8, equine serum) (Equus caballus, UniProt P81908)", "pIC50", 7.01],
  ["Cc1ccc(C[n+]2nn(Cc3cccc(F)c3)c3c4ccsc4ccc32)cc1.[Br-]", "BChE (EC 3.1.1.8, equine serum) (Equus caballus, UniProt P81908)", "pIC50", 6.44],
  ["Cc1cccc(Cn2n[n+](Cc3ccc(Cl)cc3)c3ccc4sccc4c32)c1", "BChE (EC 3.1.1.8, equine serum) (Equus caballus, UniProt P81908)", "pIC50", 5.95],
  ["COc1ccc(Cn2n[n+](Cc3ccc(C)cc3)c3ccc4sccc4c32)cc1", "BChE (EC 3.1.1.8, equine serum) (Equus caballus, UniProt P81908)", "pIC50", 5.40],
  ["Cc1cc2c(ccc3c2n(Cc2ccc(Cl)cc2)n[n+]3Cc2ccc(Cl)cc2)s1.[Br-]", "BChE (EC 3.1.1.8, equine serum) (Equus caballus, UniProt P81908)", "pIC50", 5.12],
  ["CC=Cn1n[n+](Cc2ccccc2)c2ccc3sccc3c21", "BChE (EC 3.1.1.8, equine serum) (Equus caballus, UniProt P81908)", "pIC50", 6.14],
  ["Fc1cccc(Cn2n[n+](Cc3ccc(Cl)cc3)c3ccc4sccc4c32)c1", "BChE (EC 3.1.1.8, equine serum) (Equus caballus, UniProt P81908)", "pIC50", 5.61],
  ["O=[N+]([O-])c1ccc(C[n+]2nn(Cc3cccc(Cl)c3)c3c4ccsc4ccc32)cc1.[Br-]", "BChE (EC 3.1.1.8, equine serum) (Equus caballus, UniProt P81908)", "pIC50", 5.00]
]}

###

- Test system: LPS-stimulated TNF-α production in human peripheral blood mononuclear cells (PBMCs)
- experiment: Inhibition of LPS-stimulated TNF-α production in PBMCs (ELISA)
- experimental.parameters: Homo sapiens, PBMC, 24 h, read-out: IC50 of LPS-stimulated TNF-α production
pIC50: −log10 of the molar value.
attribute.measured: pIC50

{"columns": ["compound", "measurement.target", "attribute.measured", "measured"],
 "data": [
  ["Cc1ccc(C[n+]2nn(Cc3cccc(F)c3)c3c4ccsc4ccc32)cc1.[Br-]", "LPS-stimulated TNF-α production in human peripheral blood mononuclear cells (PBMCs)", "pIC50", 6.18],
  ["C[C@@H]1C[C@H]2[C@@H]3CCC4=CC(=O)C=C[C@]4(C)[C@@]3(F)[C@@H](O)C[C@]2(C)[C@@]1(O)C(=O)CO [dexamethasone, reference compound]", "LPS-stimulated TNF-α production in human peripheral blood mononuclear cells (PBMCs)", "pIC50", 8.34]
]}

###

- measurement.target: AChE (EC 3.1.1.7, Electrophorus electricus, Type V-S) (Electrophorus electricus, UniProt O42275)
- experiment: biochemical
- experimental.parameters: mean of three measurements ± standard deviation
With a cut-off of 7 µM, any IC50 strictly below it is called true (1); any IC50 meeting it or above is called false (0).

{"columns": ["molecule", "qualitative.label"],
 "data": [
  ["COc1ccc(Cn2n[n+](Cc3ccc(Cl)cc3)c3ccc4sccc4c32)cc1", "false (0)"],
  ["Cc1cccc(Cn2n[n+](Cc3ccc(Cl)cc3)c3ccc4sccc4c32)c1", "true (1)"],
  ["Clc1ccc(C[n+]2nn(Cc3cccc(Cl)c3)c3c4ccsc4ccc32)cc1.[Br-]", "false (0)"],
  ["Clc1ccc(Cn2n[n+](Cc3ccc(Cl)cc3)c3ccc4sccc4c32)cc1.[Br-]", "false (0)"],
  ["CC=Cn1n[n+](Cc2ccccc2)c2ccc3sccc3c21", "true (1)"]
]}

###

- measurement.target: AChE (EC 3.1.1.7, Electrophorus electricus, Type V-S) (Electrophorus electricus)
- experiment: biochemical
- experimental.parameters: mean of three measurements ± standard deviation
pIC50: −log10 of the molar value.
Quick reference for pIC50 among some molecules

{"columns": ["molecule", "measurement.target", "pIC50"],
 "data": [
  ["O=[N+]([O-])c1ccc(C[n+]2nn(Cc3cccc(Cl)c3)c3c4ccsc4ccc32)cc1.[Br-]", "AChE (EC 3.1.1.7, Electrophorus electricus, Type V-S) (Electrophorus electricus)", 4.94],
  ["COc1ccc(Cn2n[n+](Cc3ccc(C)cc3)c3ccc4sccc4c32)cc1", "AChE (EC 3.1.1.7, Electrophorus electricus, Type V-S) (Electrophorus electricus)", 4.93],
  ["Fc1cccc(Cn2n[n+](Cc3ccccc3)c3ccc4sccc4c32)c1.[Br-]", "AChE (EC 3.1.1.7, Electrophorus electricus, Type V-S) (Electrophorus electricus)", 4.65],
  ["Cc1ccc(C[n+]2nn(Cc3cccc(Cl)c3)c3c4ccsc4ccc32)cc1.[Br-]", "AChE (EC 3.1.1.7, Electrophorus electricus, Type V-S) (Electrophorus electricus)", 4.25]
]}
